The compounds listed here are annotated with their LogP.
assay: Measurement of LogP values by HPLC on reversed phase columns (EEC directive 79/831 Annex V.A8); type: physicochemical
Marks after values point to notes of the source that are not given here.

Some solved entries appear below for comparison.
O=C(Cn1cncn1)c1cnc(Oc2ccc(Br)cc2)cc1C(F)(F)F [VII.27]	3.02^[a]
CC(=O)c1ccc(Oc2ccc(Cl)cc2F)nc1C(F)(F)F [V.38]	3.87^[a]
CCCCC(=O)c1ccc(Oc2ccc(Cl)cc2)nc1C(F)(F)F [V.48]	5.03^[a]
O=C(Cn1cncn1)c1cnc(Oc2ccc(S(F)(F)(F)(F)F)cc2)cc1C(F)(F)F [VII.21]	3.35^[a]
CC(=O)c1cnc(Oc2ccc(Br)cc2)cc1C(F)(F)F [V.27]	3.99^[a]
Cc1ccc(Oc2ccc(C(=O)Cn3cncn3)c(Cl)n2)cc1Cl [VII.11]	3.02^[a]
O=C(Cn1cncn1)c1cnc(Oc2ccc(Cl)cc2)cc1Cl [VII.38]	2.60^[a]
CC(=O)c1cnc(Oc2ccc(Cl)cc2)cc1C(F)F [V.37]	3.57^[a]

Just so you know, measured LogP for CC(O)c1ccc(Oc2ccc(C(O)Cn3cncn3)c(Cl)n2)cc1 (mixture of isomers) [I.24] came out at 1.48^[a]

Just so you know, measured LogP for CCCC(O)(Cn1cncn1)c1ccc(Oc2ccc(Cl)cc2)nc1C(F)(F)F (stereo not shown) [I.100] came out at 3.55^[a]

Just so you know, measured LogP for CC(O)(Cn1cncn1)c1cnc(Oc2ccc(Cl)cc2F)cc1C(F)(F)F (stereo not shown) [I.58] came out at 3.02^[a]

Just so you know, measured LogP for CC(=O)c1cnc(Oc2ccc(Cl)cc2F)cc1C(F)(F)F [V.07] came out at 4.09^[a]

Just so you know, measured LogP for CC(=O)c1ccc(Oc2ccc(F)cc2)nc1Cl [V.12] came out at 3.11^[a]

Just so you know, measured LogP for CC(O)(Cn1cncn1)c1ccc(Oc2ccc(Br)cc2)nc1C(F)(F)F (racemic) [I.59] came out at 2.94^[a]

Just so you know, measured LogP for CC(=O)c1ccc(Oc2ccc(OC(F)(F)F)cc2)nc1C(F)(F)F [V.35] came out at 4.04^[a]

Just so you know, measured LogP for O=C(CCl)c1ccc(Oc2ccccc2)nc1Cl [VI.03] came out at 3.23^[a]

Just so you know, measured LogP for O=C(CBr)c1ccc(Oc2c(F)cc(Cl)cc2F)nc1C(F)(F)F [VI.32] came out at 4.18^[a]

Just so you know, measured LogP for CCCC(=O)c1ccc(Oc2ccc(Cl)cc2)nc1C(F)(F)F [V.46] came out at 4.59^[a]

Just so you know, measured LogP for OC(Cn1cncn1)(c1ccc(Oc2ccc(Br)cc2)nc1C(F)(F)F)C1CC1 (single isomer, unassigned) [I.99] came out at 3.41^[a]

Just so you know, measured LogP for O=C(CCl)c1ccc(Oc2ccc(Cl)cc2F)nc1C(F)(F)F [VI.35] came out at 4.11^[a]

Just so you know, measured LogP for OC(Cn1cncn1)c1ccc(Oc2ccc(F)cc2F)nc1Cl (racemic) [I.18] came out at 2.18^[a]

Just so you know, measured LogP for O=C(Cn1cncn1)c1ccc(Oc2ccc(Cl)c(Cl)c2)nc1Cl [VII.03] came out at 3.06^[a]

Just so you know, measured LogP for CC(O)(Cn1cncn1)c1ccc(Oc2ccc(F)cc2)nc1Cl (racemic) [I.27] came out at 2.28^[a]

Just so you know, measured LogP for O=C(Cn1cncn1)c1cnc(Oc2ccc(Cl)cc2F)cc1C(F)(F)F [VII.30] came out at 3.06^[a]

---

experiment: Measurement of LogP values by HPLC on reversed phase columns (EEC directive 79/831 Annex V.A8); format: physicochemical; conditions: reversed phase HPLC column, method [a]: LC-UV, acidic range, 0.1% formic acid in water and acetonitrile as eluent
Property Name: chromatographic logP

CC(O)(Cn1cncn1)c1ccc(Oc2ccc(C(F)F)cc2)nc1Cl (stereo not drawn)	2.41
OC(Cn1cncn1)(c1ccc(Oc2ccc(Cl)cc2)nc1C(F)(F)F)C1CC1 (stereo not drawn)	3.26
C[C@@](O)(Cn1cncn1)c1cnc(Oc2ccc(Cl)cc2)cc1C(F)(F)F	2.84
CC(O)(Cn1cncn1)c1cnc(Oc2ccc(Cl)cc2)cc1C(F)(F)F (stereo not drawn)	2.9
Cc1ccc(Oc2ccc(C(C)(O)Cn3cncn3)c(Cl)n2)cc1Cl (stereo not drawn)	3
OC(Cn1cncn1)c1cnc(Oc2ccc(S(F)(F)(F)(F)F)cc2)cc1C(F)(F)F (stereo not drawn)	3.15
CC(=O)c1ccc(Oc2ccc(Cl)cc2)nc1C(F)(F)F	3.8
CC(O)(Cn1cncn1)c1ccc(Oc2ccc(S(F)(F)(F)(F)F)cc2)nc1Cl (stereo not drawn)	3.17
OC(Cn1cncn1)c1cnc(Oc2ccc(C(F)(F)F)cc2)cc1C(F)(F)F (stereo not drawn)	2.84

---

assay: Measurement of LogP values by HPLC on reversed phase columns (EEC directive 79/831 Annex V.A8); assay type: physicochemical
Marks after values point to notes of the source that are not given here.
Property Name: LogP

Some solved entries appear below for comparison.
CC(=O)c1ccc(Oc2ccc(Br)cc2)nc1C(F)(F)F	3.85^[a]
O=C(CCl)c1ccc(Oc2ccc(C(F)F)cc2)nc1C(F)(F)F	3.50^[a]
COc1ccc(Oc2ccc(C(=O)Cn3cncn3)c(Cl)n2)c(Cl)c1	2.58^[a]

Just so you know, measured LogP for OC(Cn1cncn1)c1ccc(Oc2ccc(OC(F)(F)F)cc2)nc1Cl (racemic) came out at 2.73^[a]

Just so you know, measured LogP for O=C(c1ccc(Oc2ccc(S(F)(F)(F)(F)F)cc2)nc1C(F)(F)F)C1CC1 came out at 4.67^[a]

Just so you know, measured LogP for O=C(CCl)c1ccc(Oc2ccc(OC(F)(F)F)cc2)nc1C(F)(F)F came out at 4.07^[a]

Just so you know, measured LogP for CC(=O)c1cnc(Oc2ccc(Br)cc2)cc1C(F)F came out at 3.74^[a]

Just so you know, measured LogP for O=C(CBr)c1cnc(Oc2ccc(C(F)F)cc2)cc1C(F)(F)F came out at 3.99^[a]

Just so you know, measured LogP for O=C(Cn1cncn1)c1ccc(Oc2ccccc2F)nc1Cl came out at 2.28^[a]

Just so you know, measured LogP for OC(Cn1cncn1)(c1ccc(Oc2ccc(Br)cc2)nc1C(F)(F)F)C(F)(F)F (stereo not shown) came out at 3.48^[a]

Just so you know, measured LogP for CC(=O)c1ncc(Oc2ccc(Cl)cc2)nc1Oc1ccc(Cl)cc1 came out at 4.36^[a]

Just so you know, measured LogP for OC(Cn1cncn1)c1ccc(Oc2ccc(Cl)cc2)nc1C(F)F (racemic) came out at 2.44^[a]

Just so you know, measured LogP for O=C(CCl)c1ncc(Oc2ccc(Cl)cc2)nc1Cl came out at 3.78^[a]

---

experiment: Measurement of LogP values by HPLC on reversed phase columns (EEC directive 79/831 Annex V.A8); type: physicochemical
Marks after values point to notes of the source that are not given here.
The compounds listed here are annotated with their LogP.

O=Cc1ccc(Oc2ccc(C(=O)C3CC3)c(C(F)(F)F)n2)cc1	3.21^[a]
CC(=O)c1ccc(Oc2ccc(Br)cc2)nc1C(F)F	3.46^[a]
OC(Cn1cncn1)c1ccc(Oc2ccc(Cl)c(Cl)c2)nc1Cl (racemic)	2.80^[a]
CC(O)(Cn1cncn1)c1cnc(Oc2ccc(Br)cc2)cc1C(F)(F)F (stereo not drawn)	2.96^[a]
O=C(Cn1cncn1)c1ccc(Oc2ccc(F)cc2F)nc1Cl	2.41^[a]
OC(Cn1cncn1)c1ccc(Oc2ccc(F)cc2)nc1Cl (racemic)	2.08^[a]

Just so you know, measured LogP for CC(=O)c1ccc(Oc2ccc(C(F)(F)F)cc2)nc1C(F)(F)F came out at 3.96^[a]

Just so you know, measured LogP for O=C(CCl)c1ccc(Oc2ccc(S(F)(F)(F)(F)F)cc2)nc1C(F)(F)F came out at 4.29^[a]

---

test: Measurement of LogP values by HPLC on reversed phase columns (EEC directive 79/831 Annex V.A8); type: physicochemical
Marks after values point to notes of the source that are not given here.
Property Name: LogP

Some solved entries appear below for comparison.
O=C(CBr)c1ccc(Oc2ccc(Cl)cc2)nc1C(F)(F)F	4.19^[a]
O=C(CCl)c1ccc(Oc2ccc(F)cc2)nc1Cl	3.39^[a]

Just so you know, measured LogP for COc1ccc(Oc2ccc(C(C)(O)Cn3cncn3)c(Cl)n2)c(Cl)c1 (racemic) came out at 2.56^[a]

Just so you know, measured LogP for CCC(O)(Cn1cncn1)c1ccc(Oc2ccc(Cl)cc2)nc1C(F)(F)F (stereo not shown) came out at 3.19^[a]

Just so you know, measured LogP for OC(Cn1cncn1)c1cnc(Oc2ccc(OC(F)(F)F)cc2)cc1C(F)(F)F (stereo not shown) came out at 3.00^[a]

Just so you know, measured LogP for CC(C)c1ccc(Oc2ccc(C(C)(O)Cn3cncn3)c(C(F)(F)F)n2)cc1 (stereo not shown) came out at 3.35^[a]
